- MEASURED ON: Retinoic acid receptor RXR-alpha (Homo sapiens)
- TEST METHOD NOTES: qHTS assay to identify small molecule agonists of the RXR signaling pathway (AID 1159527); note: nearly all actives have a fitted effect of over 35% in size
- MEASUREMENT CONDITIONS: HEK293T RXRa-UAS-bla, beta-lactamase ratio, 16 h; series mostly up to 76.8 µM
Records with an inconclusive call do not appear. Calls of active or inactive are those of the source. Calls come from the whole dose curve.
Respond with a class label; see active, inactive

C=C(C)C(=O)OCC[N+](C)(C)C | inactive
CC(=O)OCC(C)OC(C)=O (stereo not given) | inactive
O=C(O)c1c(Cl)cccc1Cl | inactive
Clc1ccc2cc3ccccc3cc2c1 | active
CCOC(=O)O[C@]1(C(=O)OCCl)CC[C@H]2[C@@H]3CCC4=CC(=O)C=C[C@]4(C)[C@H]3[C@@H](O)C[C@@]21C | inactive

// param item: CCCCCCCCCCC=O ; yields the recorded call
inactive

Same again, this time with CNC(=O)c1ccccc1
inactive

Same again, this time with COc1ccc(-c2ccc3cc(C(=O)O)ccc3c2)cc1C12CC3CC(CC(C3)C1)C2
inactive

Same again, this time with CC1=NC(C)OC1C (stereo not given)
inactive

Same again, this time with NC(=O)CC[C@@H]1NC(=O)[C@H](Cc2ccccc2)NC(=O)[C@H](Cc2ccc(O)cc2)NC(=O)CCSSC[C@@H](C(=O)N2CCC[C@H]2C(=O)N[C@@H](CCCN=C(N)N)C(=O)NCC(N)=O)NC(=O)[C@H](CC(N)=O)NC1=O
inactive

Same again, this time with O=c1cccccc1O
inactive

Same again, this time with CC(C)(C)C(=O)OCOC(=O)[C@@H]1N2C(=O)[C@@H](NC(=O)[C@H](N)c3ccccc3)[C@H]2SC1(C)C
inactive

###

- MEASURED ON: Estrogen receptor beta (Homo sapiens)
- TEST METHOD NOTES: qHTS assay to identify small molecule antagonists of the estrogen receptor beta (ER-beta) signaling pathway (AID 1259378)
- MEASUREMENT CONDITIONS: ER-beta-UAS-bla HEK293T, beta-lactamase FRET ratio, 16 h; series mostly up to 92.4 µM
Results filed as inconclusive are left out. Activity calls are given as the source filed them. Calls come from the whole dose curve; as a rule, active = well fitted inhibition curve with a large enough effect in the signal ratio in the repeat runs (not every such curve was filed as active); inconclusive = weak or mixed curves, or effect the other way; inactive = no such curve, though single readings can be large or run the other way; the % refers to the signal ratio.
Respond with a class label; see TRUE for active, FALSE for inactive

Use these answered entries as a reference point.
O=C1C=CC(=O)N1 | TRUE
O=CC=C(c1ccccc1)c1ccccc1 | TRUE
CCCCCOC(=O)CCCC | FALSE
CC(C)CCCCCCCCCCCCCCC(=O)O | FALSE
O=c1cccccc1O | FALSE
Fc1ccc(C(c2ccc(F)cc2)N2CCN(C/C=C/c3ccccc3)CC2)cc1 | TRUE

// param item: CCCCN(CCCC)C(=O)N(CCCC)CCCC ; yields the recorded call
FALSE

Same again, this time with Cc1cc(O)c(Cl)c(C)c1Cl
FALSE

Same again, this time with C=C(C)C(=O)OCC[N+](C)(C)C
FALSE

Same again, this time with CCCCCCCC/C=C/CCCCCCCC1=NCCN1CCO
TRUE

###

- TEST METHOD NOTES: A CellTox Green Cytotoxicity Assay to monitor cytotoxicity in HEK293 cells - 40 hour (AID 1224871); note: nearly all actives have a fitted effect of over 45% in size
- MEASUREMENT CONDITIONS: CellTox Green fluorescence; series mostly up to 76.8 µM
Records with an inconclusive call do not appear. Active and inactive are the calls of the source. The call rests on the fitted dose curve; in most records, active means well fitted activation curve with a large enough effect in the repeat runs; inconclusive means weak or mixed curves; inactive means flat fitted curve, though single readings scatter.
Respond with a class label; see label 1 for active, label 0 for inactive

Use these answered entries as a reference point.
O=C(NOCC1CC1)c1ccc(F)c(F)c1Nc1ccc(I)cc1Cl | label 0
CCc1cc(Cc2cc(CC)cc(C(C)(C)C)c2O)c(O)c(C(C)(C)C)c1 | label 1
CSc1ccc(C(=O)c2[nH]c(=O)[nH]c2C)cc1 | label 0
CNC(=O)c1ccccc1 | label 0

// param item: Cc1[nH]cnc1C[C@H]1CCc2c(C)c3ccccc3n2C1=O ; yields the recorded call
label 1

Same again, this time with CNc1ccc(O)cc1
label 1

Same again, this time with CCOC(=O)/C=C(C)/C=C/C=C(C)/C=C/c1c(C)cc(OC)c(C)c1C
label 0

Same again, this time with CCCCCCCCCCCCCCCCCC[N+](C)(C)C
label 1

Same again, this time with C1CCCC1
label 0

Same again, this time with NC(=O)NS(=O)(=O)c1ccc(N)cc1
label 0
